The reported numbers originate from patent US20090149389A1.

system name: MAPKAP kinase II (MK2) (UniProt P49137)
Sequence (P49137 whole entry): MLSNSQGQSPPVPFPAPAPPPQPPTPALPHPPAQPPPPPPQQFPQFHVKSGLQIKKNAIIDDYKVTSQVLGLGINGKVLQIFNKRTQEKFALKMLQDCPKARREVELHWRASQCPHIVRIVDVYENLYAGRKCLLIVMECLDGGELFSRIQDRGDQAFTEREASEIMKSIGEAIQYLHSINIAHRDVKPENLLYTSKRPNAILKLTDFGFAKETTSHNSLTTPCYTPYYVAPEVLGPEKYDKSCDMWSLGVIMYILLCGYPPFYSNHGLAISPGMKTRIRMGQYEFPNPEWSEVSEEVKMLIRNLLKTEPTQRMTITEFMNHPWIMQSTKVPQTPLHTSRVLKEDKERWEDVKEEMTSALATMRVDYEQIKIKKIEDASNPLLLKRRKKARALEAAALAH
test protocol: cell-based or functional assay
Where no end group is shown, it is not given here. [ ]: non-standard residue; d: D form.
readout type: % of … [SEQ ID NO: 124] Reaction Velocity at an Inhibitor Concentration of 100 µM (%)

>>> measurement("KA[dL]NRQLGVAA (peptide, from a related filing) [KAd…]")
146
>>> measurement("KALN[dR]QLGVAA (peptide, from a related filing) [KALNdRQLGVAA]")
306
>>> measurement("KAL[dN]RQLGVAA (peptide, from a related filing) [KALdNRQLGVAA]")
95
>>> measurement("KALNRQLG[dV]AA (peptide, from a related filing) [KALNRQLGdVAA]")
260
